# procedureDetails: in vivo
# conditionContext: male, Beagle, dog, in vivo, po, 3 mg/kg/day
quantity: AUC

*Q* Identify the reported AUC for the following entry. "CC(C)c1ccc(CC(=O)N[C@H](C)c2ccc(OCC(F)(F)F)cn2)cc1"
*A* 62.5 µM·h

###

# procedureDetails: Pharmacokinetics in rats
# Assay type: in vivo, rat
# conditionContext: female, rat, plasma, po, 10 mg/kg; read-out: AUC24
quantity: AUC (µM·h)
Give bare numbers, in µM·h.

// input: 2 compounds below; output: AUC for each
1. C=C(C)c1ccc(CC(=O)N[C@H](C)c2ccc(OCC(F)(F)F)cn2)cc1
2. C[C@@H](NC(=O)Cc1ccc(C(C)(C)O)cc1)c1ccc(OCC(F)(F)F)cn1

*A*
1: 8.7; 2: 31

###

# procedureDetails: Phase 1 single-dose pharmacokinetics (PN001, PN002/Part I, PN003, PN005)
# Format: in vivo, human
# conditionContext: male, human, plasma, oral, 12 mg, PN002 Part 2, 12 mg, 1 dose; read-out: AUC0-24
quantity: AUC(0-t) (µM·h)
Answers are plain numbers, in µM·h.

*Q* Identify the reported AUC(0-t) for the following entry. "CC(C)c1ccc(CC(=O)N[C@H](C)c2ccc(OCC(F)(F)F)cn2)cc1"
*A* 4.99

###

Assignment: determine reported AUC for the given compounds.
# procedureDetails: in vivo
# conditionContext: male, rat, po, 100 mg/kg
Numbers only, in µM·h.

These solved cases illustrate the format of a correct answer.
• C=C(C)c1ccc(CC(=O)N[C@H](C)c2ccc(OCC(F)(F)F)cn2)cc1 [M01] = 85.9
• CC(C(=O)O)c1ccc(CC(=O)N[C@H](C)c2ccc(OCC(F)(F)F)cn2)cc1 (stereo partly shown) [M03] = 181
• CC(CO)c1ccc(CC(=O)N[C@H](C)c2ccc(OCC(F)(F)F)cn2)cc1 (stereo partly shown) [M04] = 15.5

*Q* Identify the reported AUC for the following entry. C[C@@H](NC(=O)Cc1ccc(C(C)(C)O)cc1)c1ccc(OCC(F)(F)F)cn1 [M02]
*A* 186

###

# procedureDetails: In vitro plasma protein binding, rat
# Format: in vitro ADME
# conditionContext: rodents, read-out: Plasma-free fraction
quantity: fraction unbound
Answers are plain numbers.

*Q* Identify the reported fraction unbound for the following entry. "CC(C)c1ccc(CC(=O)N[C@H](C)c2ccc(OCC(F)(F)F)cn2)cc1"
*A* 0.004

###

# procedureDetails: 90-day oral toxicology in Beagle dogs
# conditionContext: both, beagle, dog, in vivo, oral
quantity: NOAEL at 90 days (mg/kg/day)
Answers are plain numbers, in mg/kg/day.

*Q* Identify the reported NOAEL at 90 days for the following entry. CC(C)c1ccc(CC(=O)N[C@H](C)c2ccc(OCC(F)(F)F)cn2)cc1 [CX-8998]
*A* 30

###

# procedureDetails: in vivo
# conditionContext: female, rat, po, 500 mg/kg/day
quantity: Tmax (h)
One number for each entry, in h.

*Q* Identify the reported Tmax for the following entry. "CC(C)c1ccc(CC(=O)N[C@H](C)c2ccc(OCC(F)(F)F)cn2)cc1"
*A* 4.8

###

# experimentalTarget: hERG (Homo sapiens)
# Construct: expressed in transfected cells; host or cells: CHO-K1
# Sequence (Q12809 whole entry): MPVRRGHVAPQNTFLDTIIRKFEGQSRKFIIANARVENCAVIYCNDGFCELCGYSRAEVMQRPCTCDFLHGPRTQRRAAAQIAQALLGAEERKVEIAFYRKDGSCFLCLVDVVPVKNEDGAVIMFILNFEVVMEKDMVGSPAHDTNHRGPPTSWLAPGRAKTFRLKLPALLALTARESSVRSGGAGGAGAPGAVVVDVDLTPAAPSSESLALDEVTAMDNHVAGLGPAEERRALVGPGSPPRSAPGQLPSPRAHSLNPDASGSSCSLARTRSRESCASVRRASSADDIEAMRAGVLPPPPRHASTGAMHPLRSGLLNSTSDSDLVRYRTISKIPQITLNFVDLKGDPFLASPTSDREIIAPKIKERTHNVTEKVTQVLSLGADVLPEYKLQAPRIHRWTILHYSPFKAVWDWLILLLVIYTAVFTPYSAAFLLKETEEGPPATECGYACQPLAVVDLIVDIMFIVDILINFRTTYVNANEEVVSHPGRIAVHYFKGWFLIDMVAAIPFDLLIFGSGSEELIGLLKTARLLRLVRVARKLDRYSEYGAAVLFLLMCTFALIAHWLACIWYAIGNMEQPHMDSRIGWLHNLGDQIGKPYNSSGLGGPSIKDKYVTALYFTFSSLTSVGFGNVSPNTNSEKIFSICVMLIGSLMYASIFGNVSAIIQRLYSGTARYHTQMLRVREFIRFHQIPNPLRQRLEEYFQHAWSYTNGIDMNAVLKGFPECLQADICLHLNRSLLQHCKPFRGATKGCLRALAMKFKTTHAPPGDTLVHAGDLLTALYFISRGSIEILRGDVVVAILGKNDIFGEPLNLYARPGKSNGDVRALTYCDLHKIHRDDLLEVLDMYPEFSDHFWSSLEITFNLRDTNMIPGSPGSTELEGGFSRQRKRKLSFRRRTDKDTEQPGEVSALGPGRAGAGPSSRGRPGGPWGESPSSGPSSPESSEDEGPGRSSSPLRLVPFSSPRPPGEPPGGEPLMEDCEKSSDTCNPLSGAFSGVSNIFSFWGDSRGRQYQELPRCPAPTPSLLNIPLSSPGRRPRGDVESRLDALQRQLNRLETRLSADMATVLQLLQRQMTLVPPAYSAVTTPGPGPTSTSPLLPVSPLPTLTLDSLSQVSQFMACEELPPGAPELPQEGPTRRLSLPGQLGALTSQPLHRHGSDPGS
# procedureDetails: hERG whole-cell voltage-clamp (CHO-K1 cells)
# Type: cell-based
# conditionContext: hERG current
quantity: IC50

*Q* Identify the reported IC50 for the following entry. "CC(C)c1ccc(CC(=O)N[C@H](C)c2ccc(OCC(F)(F)F)cn2)cc1"
*A* 21 µM

###

# procedureDetails: in vivo
# conditionContext: male, rat, po, 5 mg/kg
quantity: AUC (µM·h)
Numbers only, in µM·h.

These solved cases illustrate the format of a correct answer.
* CC(C(=O)O)c1ccc(CC(=O)N[C@H](C)c2ccc(OCC(F)(F)F)cn2)cc1 (stereo partly shown) | 23.9
* C[C@@H](NC(=O)Cc1ccc(C(C)(C)O)cc1)c1ccc(OCC(F)(F)F)cn1 | 12
* C=C(C)c1ccc(CC(=O)N[C@H](C)c2ccc(OCC(F)(F)F)cn2)cc1 | 4.33

Shift focus to the following entry.
*Q* Identify the reported AUC for the following entry. CC(CO)c1ccc(CC(=O)N[C@H](C)c2ccc(OCC(F)(F)F)cn2)cc1 (stereo partly shown)
*A* 1.32

###

# procedureDetails: in vivo
# conditionContext: male, rat, po, 100 mg/kg/day
quantity: half-life (h)
Answers are plain numbers, in h.

*Q* Identify the reported half-life for the following entry. CC(C)c1ccc(CC(=O)N[C@H](C)c2ccc(OCC(F)(F)F)cn2)cc1 [CX-8998]
*A* 3.72

###

# procedureDetails: 90-day oral toxicology in Beagle dogs
# conditionContext: female, Beagle, dog, in vivo, po, 30 mg/kg
quantity: AUC (µM·h)
Answers are plain numbers, in µM·h.

These solved cases illustrate the format of a correct answer.
- C[C@@H](NC(=O)Cc1ccc(C(C)(C)O)cc1)c1ccc(OCC(F)(F)F)cn1 [M02]: 209
- CC(CO)c1ccc(CC(=O)N[C@H](C)c2ccc(OCC(F)(F)F)cn2)cc1 (stereo partly shown) [M04]: 3.75
- CC(C(=O)O)c1ccc(CC(=O)N[C@H](C)c2ccc(OCC(F)(F)F)cn2)cc1 (stereo partly shown) [M03]: 15.4

Shift focus to the following entry.
*Q* Identify the reported AUC for the following entry. C=C(C)c1ccc(CC(=O)N[C@H](C)c2ccc(OCC(F)(F)F)cn2)cc1 [M01]
*A* 103

###

# procedureDetails: Phase 1 single-dose pharmacokinetics (PN001, PN002/Part I, PN003, PN005)
# Assay type: in vivo, human
# conditionContext: male, human, plasma, oral, 18 mg, PN002 Part 1, 18 mg, 1 dose; read-out: AUC0-24
quantity: AUC(0-t) (µM·h)
Numbers only, in µM·h.

*Q* Identify the reported AUC(0-t) for the following entry. "CC(C)c1ccc(CC(=O)N[C@H](C)c2ccc(OCC(F)(F)F)cn2)cc1"
*A* 9.44

###

Assignment: determine reported AUC for the given molecules.
# procedureDetails: 90-day oral toxicology in Beagle dogs
# conditionContext: male, Beagle, dog, in vivo, po, 30 mg/kg
Numbers only, in µM·h.

* CC(C(=O)O)c1ccc(CC(=O)N[C@H](C)c2ccc(OCC(F)(F)F)cn2)cc1 (stereo partly shown) [M03] | 12.3

// input: 2 molecules below; output: AUC for each
1. C=C(C)c1ccc(CC(=O)N[C@H](C)c2ccc(OCC(F)(F)F)cn2)cc1 [M01]
2. C[C@@H](NC(=O)Cc1ccc(C(C)(C)O)cc1)c1ccc(OCC(F)(F)F)cn1 [M02]

*A*
[121, 213]

*Q* Identify the reported AUC for the following entry. CC(CO)c1ccc(CC(=O)N[C@H](C)c2ccc(OCC(F)(F)F)cn2)cc1 (stereo partly shown) [M04]
*A* 2.25

###

# procedureDetails: Phase 1 multiple-dose pharmacokinetics (PN002/Part II)
# conditionContext: human, plasma, 8 mg
quantity: half-life (h)
Numbers only, in h.

*Q* Identify the reported half-life for the following entry. C[C@@H](NC(=O)Cc1ccc(C(C)(C)O)cc1)c1ccc(OCC(F)(F)F)cn1 [M02]
*A* 12.2

###

# procedureDetails: in vivo
# conditionContext: female, Beagle, dog, brain (frontal cortex), po, 300 mg/kg
quantity: Kp at 24 h
Answers are plain numbers.

*Q* Identify the reported Kp at 24 h for the following entry. "C=C(C)c1ccc(CC(=O)N[C@H](C)c2ccc(OCC(F)(F)F)cn2)cc1"
*A* 0.696

###

# procedureDetails: clinical
# conditionContext: human, plasma, oral, 8 mg
Assignment: determine reported AUC(0-t) for the given compounds.
Give bare numbers, in µM·h.

These solved cases illustrate the format of a correct answer.
* CC(C)c1ccc(CC(=O)N[C@H](C)c2ccc(OCC(F)(F)F)cn2)cc1 | 7.49
* C=C(C)c1ccc(CC(=O)N[C@H](C)c2ccc(OCC(F)(F)F)cn2)cc1 | 6.88

*Q* Identify the reported AUC(0-t) for the following entry. "C[C@@H](NC(=O)Cc1ccc(C(C)(C)O)cc1)c1ccc(OCC(F)(F)F)cn1"
*A* 3.67

###

# procedureDetails: Phase 1 multiple-dose pharmacokinetics (PN002/Part II)
# conditionContext: human, plasma, 8 mg, AUC24, M02, Day 7, CX-8998 8 mg once daily
quantity: AUC (µM·h)
Answers are plain numbers, in µM·h.

*Q* Identify the reported AUC for the following entry. "C[C@@H](NC(=O)Cc1ccc(C(C)(C)O)cc1)c1ccc(OCC(F)(F)F)cn1"
*A* 3.54

###

# procedureDetails: in vivo
# conditionContext: female, rat, po, 100 mg/kg/day
quantity: half-life (min)
Numbers only, in min.

*Q* Identify the reported half-life for the following entry. "CC(C)c1ccc(CC(=O)N[C@H](C)c2ccc(OCC(F)(F)F)cn2)cc1"
*A* 555
